Source of measurements: the supplement of paper PMC10065799

Biological target: SHP2-C SH2;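 further: peptide library displayed on the E. coli surface as eCPX fusions, selected cells deep-sequenced, score is each peptide's frequency after selection divided by its frequency in the input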
Experiment: SH2 binding enrichment of the phosphorylated peptide, bacterial display (enrichment ratio); higher = better substrate or ligand; peptides without Tyr show the background
Could you please report measured SH2 binding enrichment for the items listed next?
Respond numerically, and do not add a unit to the figure.

Input line: Dear colleague, please send me the reported SH2 binding enrichment for ARMTNYGLPRF [TSPAN12_Y138_YF] when you can.
Output line: 1.33

Input line: Dear colleague, please send me the reported SH2 binding enrichment for VTSLKYSTSPF [BRIP1_Y916_YF] when you can.
Output line: 0.664

Input line: Dear colleague, please send me the reported SH2 binding enrichment for LYVDVYGPSVP [NUBPL_Y109_D105Y] when you can.
Output line: 0.695

Input line: Dear colleague, please send me the reported SH2 binding enrichment for SGVSFYINLCQ [IGF2R_Y2025_N2020S_YF] when you can.
Output line: 1.32

Input line: Dear colleague, please send me the reported SH2 binding enrichment for KICDWYQRQRP [KRT14_Y151_R148C] when you can.
Output line: 0.75

Input line: Dear colleague, please send me the reported SH2 binding enrichment for GEDEPYSEPYA [APBA1_Y183] when you can.
Output line: 0.742

Input line: Dear colleague, please send me the reported SH2 binding enrichment for KGVDRYNPENL [EIF3K_Y21_I18V] when you can.
Output line: 0.592

Input line: Dear colleague, please send me the reported SH2 binding enrichment for IFHENYNAGTY [CFI_Y421] when you can.
Output line: 0.676

* * *

Biological target: Fyn (UniProt P06241)
Sequence (P06241 whole entry, looked up): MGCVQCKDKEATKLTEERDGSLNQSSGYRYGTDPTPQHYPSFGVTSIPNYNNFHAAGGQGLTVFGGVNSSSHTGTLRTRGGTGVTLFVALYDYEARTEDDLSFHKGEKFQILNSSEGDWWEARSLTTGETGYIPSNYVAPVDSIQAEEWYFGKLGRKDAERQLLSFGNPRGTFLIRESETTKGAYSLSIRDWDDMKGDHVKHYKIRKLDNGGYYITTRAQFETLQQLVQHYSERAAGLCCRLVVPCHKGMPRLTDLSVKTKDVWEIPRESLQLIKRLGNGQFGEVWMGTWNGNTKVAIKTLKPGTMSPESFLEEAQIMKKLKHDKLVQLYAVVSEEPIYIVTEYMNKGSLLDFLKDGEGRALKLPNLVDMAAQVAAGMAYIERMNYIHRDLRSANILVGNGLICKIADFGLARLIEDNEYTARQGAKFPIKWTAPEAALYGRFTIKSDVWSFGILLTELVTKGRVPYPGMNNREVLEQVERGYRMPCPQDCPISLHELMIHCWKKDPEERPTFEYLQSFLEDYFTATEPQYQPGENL
Test: phosphorylation enrichment, bacterial display (enrichment ratio); higher = better substrate or ligand; peptides without Tyr show the background
Property label: phosphorylation enrichment
Respond numerically, and do not add a unit to the figure.

Input line: For Fyn (UniProt P06241), give the measured phosphorylation enrichment of the entry RGDVIYKGFED [NFU1_Y194_G189R]
Output line: 4.47

Input line: For Fyn (UniProt P06241), give the measured phosphorylation enrichment of the entry SIIKDSFHRGA [GATM_Y203_Y203S]
Output line: 0.369

Input line: For Fyn (UniProt P06241), give the measured phosphorylation enrichment of the entry IGKAGYTDKVV [ENO1_Y236]
Output line: 0.359

Input line: For Fyn (UniProt P06241), give the measured phosphorylation enrichment of the entry EKKKFYDTKIE [CASP5_Y104_YF]
Output line: 0.353

* * *

Molecular target: MERTK (UniProt Q12866)
Sequence (Q12866 whole entry, looked up): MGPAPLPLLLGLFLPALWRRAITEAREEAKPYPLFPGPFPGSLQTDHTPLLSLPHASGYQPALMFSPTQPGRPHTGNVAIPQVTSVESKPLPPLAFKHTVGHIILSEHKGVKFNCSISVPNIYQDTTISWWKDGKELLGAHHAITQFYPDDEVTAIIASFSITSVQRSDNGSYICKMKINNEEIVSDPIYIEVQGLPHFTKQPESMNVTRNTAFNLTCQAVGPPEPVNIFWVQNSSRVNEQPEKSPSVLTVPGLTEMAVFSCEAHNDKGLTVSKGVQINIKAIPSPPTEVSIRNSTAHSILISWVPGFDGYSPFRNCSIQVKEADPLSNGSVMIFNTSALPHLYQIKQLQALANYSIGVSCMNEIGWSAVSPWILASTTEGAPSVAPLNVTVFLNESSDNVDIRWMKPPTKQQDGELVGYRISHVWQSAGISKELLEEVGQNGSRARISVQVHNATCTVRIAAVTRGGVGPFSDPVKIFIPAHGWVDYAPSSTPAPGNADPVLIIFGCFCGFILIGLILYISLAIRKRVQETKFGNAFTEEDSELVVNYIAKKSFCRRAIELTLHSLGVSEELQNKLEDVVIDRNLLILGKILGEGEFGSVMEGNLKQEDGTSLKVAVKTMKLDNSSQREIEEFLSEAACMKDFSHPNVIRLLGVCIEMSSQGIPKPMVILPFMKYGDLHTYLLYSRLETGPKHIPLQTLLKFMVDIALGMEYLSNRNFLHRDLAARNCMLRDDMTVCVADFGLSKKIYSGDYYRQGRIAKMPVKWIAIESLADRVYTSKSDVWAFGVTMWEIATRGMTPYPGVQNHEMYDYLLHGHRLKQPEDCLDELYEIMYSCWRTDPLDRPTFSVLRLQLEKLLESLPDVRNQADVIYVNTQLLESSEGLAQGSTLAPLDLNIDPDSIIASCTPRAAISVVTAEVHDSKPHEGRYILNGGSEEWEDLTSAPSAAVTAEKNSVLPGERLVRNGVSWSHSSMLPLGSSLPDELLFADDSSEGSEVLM
Assay: phosphorylation enrichment, bacterial display (enrichment ratio); higher = better substrate or ligand; peptides without Tyr show the background
Property label: phosphorylation enrichment
Respond numerically, and do not add a unit to the figure.

Input line: For MERTK (UniProt Q12866), give the measured phosphorylation enrichment of the entry ETMNKYDLSGR [MYEF2_Y164]
Output line: 0.633

Input line: For MERTK (UniProt Q12866), give the measured phosphorylation enrichment of the entry ADKSAYLMGVN [MYH7_Y386_L390V]
Output line: 0.338

Input line: For MERTK (UniProt Q12866), give the measured phosphorylation enrichment of the entry EVKAQYEDIAQ [KRT1_Y358]
Output line: 0.435

Input line: For MERTK (UniProt Q12866), give the measured phosphorylation enrichment of the entry PKEQKYSFLQD [GH1_Y68_N73D]
Output line: 0.858
